system: morningglory; assay: Test A preemergence; assay type: in vivo, Ipomoea spp.; details: 500 g ai/ha, 0 to 100 scale (0 no effect, 100 complete control), approx. 10 d
ASSAY_READOUT: Plant response rating, Morningglory
Give the figure by itself; no unit, no explanation.

# count of solved cases: 3
CCCc1nc(-c2ccc(F)c(F)c2)nn1Cc1ccnc(C(F)(F)F)c1 80
CCc1nc(-c2cccc(C(F)(F)F)c2)nn1Cc1ccnc(C(F)(F)F)c1 20
Cn1nc(-c2ccc(F)cc2)nc1Cc1ccnc(C(F)(F)F)c1 70

Now turn to the next molecule.
Bench note: what Plant response rating, Morningglory did `CCCn1nc(-c2ccc(F)cc2)nc1C(=O)c1ccnc(C(F)(F)F)c1` show?
20
